- METHOD_NOTES: Interpatient oral bioavailability in patients (oral vs intravenous AUC, matched)
- Assay type: in vivo
- CONDITION_LABEL: human, plasma, 2 mg/m2, AMT 2 mg/m^2, pediatric patients, n=15, read-out: Maximum (%) oral bioavailability
OBSERVED_PROPERTY: bioavailability
Please answer in the form of a number followed by its unit of measurement.

Q. Can you look up the measured bioavailability of `Nc1nc(N)c2nc(CNc3ccc(C(=O)N[C@@H](CCC(=O)O)C(=O)O)cc3)cnc2n1` for me?
A. 165%

* * *

- METHOD_NOTES: Interpatient oral bioavailability in patients (oral vs intravenous AUC, matched)
- Format: in vivo
- CONDITION_LABEL: human, plasma, 2 mg/m2, AMT 2 mg/m^2, pediatric patients (age 0-21), 15 matched patients, read-out: Interpatient oral bioavailability (%)
- Protocol: The term “interpatient oral bioavailability” as used herein refers to the mean oral bioavailability in a population of at least two patients, wherein the oral bioavailability is determined at least once for each patient in the population. The interpatient oral bioavailability may be calculated by dividing the mean population AUC after oral dosing by the mean population AUC after intravenous dosing, wherein the oral and intravenous doses are identical, and expressing the ratio as a percent. […]
OBSERVED_PROPERTY: bioavailability (%)
# value in %; strip the unit string

Q. Can you look up the measured bioavailability of Nc1nc(N)c2nc(CNc3ccc(C(=O)N[C@@H](CCC(=O)O)C(=O)O)cc3)cnc2n1 [AMT] for me?
A. 94

Data origin, for the record: patent US7612071B2
